tested on: glycogen synthase kinase-3 (GSK3A per assay name; protocol says GSK3B); test: GSK3 binders on small-molecule microarrays, primary screen, biochemical, small-molecule microarray, 635 nm fluorescence, GSK3A (AID 1103); conditions: small-molecule microarray binding, fluorescence 635 nm; higher = more signal; note: the record names both GSK3A and GSK3B
Readout Kind: composite z-score

Molecule: C=CCOC(=O)[C@@H]1[C@H]2C(=O)O[C@H](c3ccccc3)[C@H](c3ccccc3)N2[C@H](c2ccc(OCCOC(=O)[C@@H]3C[C@@H]4C(=O)NCC(=O)N4[C@@H]3c3ccc(O)cc3)cc2)[C@@]12C(=O)Nc1ccc(I)cc12
Test Result: 1.29
//
Molecule: C=C(COC)/C(=C/C[C@@H](OC(C)=O)c1ccc(OCCO)cc1)c1cnc2ccccc2c1
Test Result: 0.369
//
Molecule: COCCOC(=O)N1C(=O)[C@@]2(c3cc(C#Cc4ccc(OC)cc4)ccc31)[C@H](c1ccccc1OCCO)N1[C@H](c3ccccc3)[C@H](c3ccccc3)OC(=O)[C@H]1[C@@H]2C(=O)NC[C@H](O)c1ccccc1
Test Result: 0.748
//
Molecule: COc1cccc(-c2cccc(=O)o2)c1
Test Result: -0.21
//
Molecule: CCS[C@H]1[C@@H](C(=O)O)[C@H](c2ccc(C)cc2)N(S(=O)(=O)c2ccc(C)cc2)[C@@H]1CC
Test Result: 0.793
//
Molecule: COCCOC(=O)N1C(=O)[C@@]2(c3ccccc31)[C@H](c1ccccc1OCCO)N1[C@H](c3ccccc3)[C@H](c3ccccc3)OC(=O)[C@H]1[C@@H]2C(=O)N1CCN(c2ncccn2)CC1
Test Result: 0.852
//
Molecule: CCC[C@@H]1C[C@@]1(CCC)[C@@H](NC(=O)c1ccccc1)c1cccc(Cl)c1
Test Result: 1.09
//
Molecule: C=C[C@H](OC)[C@@H](OC(=O)Nc1ccc(OC)cc1)c1ccc(O)c(F)c1
Test Result: -0.499
//
Molecule: C=CC[C@@]12N=C(c3ccc(OCCCO)cc3)O[C@@H]1c1ccccc1N(C)C2=O
Test Result: 1.32
//
Molecule: CCCC=C(CCC)[C@@H](NC(=O)c1cccs1)c1ccc(C(F)(F)F)cc1
Test Result: 1.25
//
Molecule: C[C@H]1NC(=O)[C@@]23C(=O)N[C@@H](Cc4ccccc4)C2[C@H](C)[C@@]2(C)O[C@H]2C3/C=C/C/C=C\CNC(=O)[C@@H]2CCCN2C1=O (stereo partly specified)
Test Result: 0.365
//
Molecule: C=CCOC(=O)[C@H]1[C@@H]2C(=O)O[C@@H](c3ccccc3)[C@@H](c3ccccc3)N2[C@@H](c2ccc(OCCOC(=O)[C@@H]3C[C@@H]4C(=O)N[C@@H](CCCCNC(C)=O)C(=O)N4[C@@H]3c3ccc(O)cc3)cc2)[C@]12C(=O)Nc1ccccc12
Test Result: 1.3
//
Molecule: C=C(CCCC)/C(=C/C[C@@H](OC(C)=O)c1ccc(OCCO)cc1)c1cnc2ccccc2c1
Test Result: -0.174
//
Molecule: [N-]=[N+]=Nc1ccccc1[C@@H]1OC(c2ccc(OCCCO)cc2)=N[C@]1(Cc1ccccc1)C(=O)N1CCOCC1
Test Result: 1.28
//
Molecule: COCCOC(=O)N1C(=O)[C@@]2(c3cc(C#CC4(O)CCCCCC4)ccc31)[C@H](c1ccc(OCCO)cc1)N1[C@H](c3ccccc3)[C@H](c3ccccc3)OC(=O)[C@H]1[C@@H]2C(=O)N1CCN(c2ncccn2)CC1
Test Result: 1.28
//
Molecule: COCCOC(=O)N1C(=O)[C@@]2(c3cc(C#CCC(C(=O)OC)C(=O)OC)ccc31)[C@H](C(=O)Nc1nc3ccccc3s1)[C@H]1C(=O)O[C@H](c3ccccc3)[C@H](c3ccccc3)N1[C@@H]2c1ccccc1OCCO
Test Result: 1.04
//
Molecule: COC(=O)[C@@]1(Cc2ccc(OC)cc2)[C@H]2c3cc(C(=O)N4CCCC4)n(CCN4CNCC4=O)c3C[C@H]2CN1C(=O)c1ccccc1
Test Result: -0.16
//
Molecule: CCCc1cc2c(n1Cc1cc(F)cc(F)c1)C(C)C1CN(C(=O)c3ccccc3)C(C)(C(=O)OC)C21 (stereo unspecified)
Test Result: 1.07
//
Molecule: COc1ccc([Si](C)(C)[C@H]2[C@H](CC(=O)N3Cc4ccccc4C[C@H]3CO)O[C@@]3(C(=O)N(Cc4cccc(N5CCC5=O)c4)c4ccccc43)[C@@H]2C)cc1
Test Result: 0.716
//
Molecule: CC(C)C(=C=CC[C@@H](O)c1ccc(OCCO)cc1)C[C@@H](O)c1ccccn1
Test Result: 0.854
//
Molecule: CCOC(=O)[C@H]1C/C=C/C[C@H](C(=O)OCC)C(=O)O[C@H]2[C@@H](OC)O[C@H](CO)[C@@H](OC(=O)c3c(OC)cccc3OC)[C@@H]2OC1=O
Test Result: 0.62
//
Molecule: CC(C)C[C@@H]1NC(=O)[C@H](C(C)C)NC(=O)[C@@]23C(=O)N[C@@H](Cc4ccccc4)C2[C@H](C)[C@@]2(C)O[C@H]2C3/C=C/CC/C=C/CNC1=O (stereo partly specified)
Test Result: 0.94
//
Molecule: COC(=O)[C@@]1(CCS(=O)(=O)c2ccccc2)N=C(c2ccc(OCCCO)cc2)O[C@H]1c1ccccc1CN=[N+]=[N-]
Test Result: 1.24
//
Molecule: COC(=O)C(CC#Cc1ccc2c(c1)[C@]1(C(=O)N2)[C@H](c2ccc(OCCO)cc2)N2[C@H](c3ccccc3)[C@H](c3ccccc3)OC(=O)[C@H]2[C@@H]1C(=O)N1CCc2cc(OC)c(OC)cc2C1)C(=O)OC
Test Result: 1.32
//
Molecule: COc1ccc(CCNC(=O)[C@@]2(C)c3ccccc3C(=O)N(C(C)C)[C@H]2c2ccc(CO)cc2)cc1
Test Result: -0.0218
//
Molecule: O=C1c2ccccc2[C@](Cc2ccccc2I)(C(=O)NCCN2CCOCC2)[C@H](c2ccc(CO)cc2)N1Cc1ccccc1Cl
Test Result: 1.28
